propertyLabel: melting point

CN1CCN(c2ccc(/C=C/C(=O)CC(=O)/C=C/c3ccc(N4CCN(C)CC4)cc3)cc2)CC1 [CU386] = 212 to 217 °C

Please report melting point for every entry that follows.
1. COCOc1cccc(O)c1/C=C/C(=O)CC(=O)/C=C/c1ccc(OC)c(O)c1 [CU313]
2. O=C(/C=C/c1ccc(O)cc1)CC(=O)/C=C/c1ccc2[nH]ccc2c1 [CU187]

89 to 93 °C
222 to 226 °C

Please report melting point for every entry that follows.
1. COc1cccc(O)c1/C=C/C(=O)CC(=O)/C=C/c1ccc(O)cc1 [CU275]
2. CN(C)c1ccccc1/C=C/C(=O)CC(=O)/C=C/c1ccc(O)cc1 [CU495]
3. COc1ccc(/C=C/C(=O)CC(=O)/C=C/c2ccc(O)c(C)c2)cc1O [CU052]
4. COc1cc(/C=C/C(=O)CC(=O)/C=C/c2c(O)cccc2OC)ccc1O [CU279]

1: 94 to 99 °C; 2: 68 to 72 °C; 3: 215 to 218 °C; 4: 161 to 164 °C

Please report melting point for every entry that follows.
1. COc1ccc(OC)c(/C=C/C(=O)CC(=O)/C=C/c2ccc(OC)c(O)c2)c1 [CU077]
2. COc1cc(/C=C/C(=O)CC(=O)/C=C/c2ccc3c(c2)OCO3)ccc1O [CU009]
3. COc1ccc(/C=C/C(=O)CC(=O)/C=C/c2cc(OC)c(OC)c(OC)c2)cc1O [CU205]
4. CN(C)c1ccc(/C=C/C(=O)CC(=O)CCc2ccc(O)cc2)c(Cl)c1 [CU524]
5. COc1cc(/C=C/C(=O)CC(=O)/C=C/c2ccc(O)cc2)ccc1[N+](=O)[O-] [CU050]
6. O=C(/C=C/c1ccc(O)cc1)CC(=O)/C=C/c1ccc2[nH]ncc2c1 [CU349]
7. Cn1c(/C=C/C(=O)CC(=O)/C=C/c2ccc(O)cc2)cc2ccccc21 [CU126]
8. COc1ccc([N+](=O)[O-])c(/C=C/C(=O)CC(=O)/C=C/c2ccc(O)cc2)c1 [CU481]

["63 to 68 °C", "149 to 152 °C", "195 to 200 °C", "120 to 129 °C", "190 to 192 °C", "148 to 152 °C", "208 to 213 °C", "151 to 155 °C"]

Please report melting point for every entry that follows.
1. COc1cc(/C=C/C(=O)CC(=O)/C=C/c2cccc3cccnc23)ccc1O [CU453]
2. O=C(/C=C/c1ccc(O)cc1)CC(=O)/C=C/c1ccc2c(c1)OCO2 [CU215]
3. O=C(/C=C/c1ccc(O)cc1)CC(=O)/C=C/c1ccccc1N1CCN(CCO)CC1 [CU501]
4. COc1cc(/C=C/C(=O)CC(=O)/C=C/c2ccc(O)cc2)cc(OC)c1O [CU134]
5. O=C(/C=C/c1ccc(O)cc1)CC(=O)/C=C/c1cc(F)cc(F)c1 [CU468]

1: 83 to 87 °C; 2: 197 to 200 °C; 3: 102 to 110 °C; 4: 228 to 233 °C; 5: 153 to 156 °C

----------
Please go through the items and note down their melting point.

O=C(/C=C/c1ccc2cc[nH]c2c1)CC(=O)/C=C/c1ccc2cc[nH]c2c1 [CU391] = 247 to 255 °C

Please report melting point for every entry that follows.
1. COc1ccc(/C=C/C(=O)CC(=O)/C=C/c2cccs2)cc1O [CU212]
2. O=C(/C=C/c1ccc(O)cc1)CC(=O)/C=C/c1cc(Br)ccc1F [CU466]
3. CCn1c2ccccc2c2cc(/C=C/C(=O)CC(=O)/C=C/c3ccc4c(c3)c3ccccc3n4CC)ccc21 [CU263]
4. COc1cc(O)ccc1/C=C/C(=O)CC(=O)/C=C/c1ccc(O)cc1 [CU083]
5. COc1ccc(O)cc1CCC(=O)CC(=O)CCc1cc(O)ccc1OC [CU512]
6. COc1ccc(/C=C/C(=O)CC(=O)/C=C/c2ccc(O)c(OC)c2)c(O)c1 [CU256]

128 to 133 °C
177 to 203 °C
264 to 267 °C
105 to 110 °C
163 to 169 °C
108 to 113 °C

----------
Please go through the items and note down their melting point.

Below: 2 molecules and their reported melting point.
CCN(CC)c1ccc(/C=C/C(=O)CC(=O)/C=C/c2ccc(OC)c(O)c2)c(OCc2ccccc2)c1 [CU438] = 72 to 77 °C
O=C(/C=C/c1cccc2cccnc12)CC(=O)/C=C/c1cccc2cccnc12 [CU414] = 202 to 208 °C

Please report melting point for every entry that follows.
1. O=C(/C=C/c1ccc(O)cc1)CC(=O)/C=C/c1ccc(Oc2ccccc2)cc1 [CU213]
2. COc1ccc(/C=C/C(=O)CC(=O)/C=C/c2ccccn2)cc1O [CU218]
3. O=C(/C=C/c1ccc(O)cc1)CC(=O)/C=C/c1ccccc1-c1ccncc1 [CU514]
4. Cn1c(/C=C/C(=O)CC(=O)/C=C/c2cc3ccccc3n2C)cc2ccccc21 [CU409]
5. COc1cc(/C=C/C(=O)CC(=O)/C=C/c2cc(O)cc(O)c2)ccc1O [CU093]
6. COc1cc(O)cc(/C=C/C(=O)CC(=O)/C=C/c2ccc(O)cc2)c1 [CU180]
7. COc1cc(/C=C/C(=O)CC(=O)/C=C/c2cccn2C)ccc1O [CU121]
8. COc1ccc(/C=C/C(=O)CC(=O)/C=C/c2cccc(O)c2)cc1O [CU081]

175 to 178 °C
182 to 187 °C
249 to 256 °C
189 to 196 °C
85 to 90 °C
161 to 165 °C
131 to 132 °C
200 to 206 °C

----------
Please go through the items and note down their melting point.

O=C(/C=C/c1cc2ccccc2[nH]1)CC(=O)/C=C/c1cc2ccccc2[nH]1 [CU393] = 264 to 268 °C

Please report melting point for every entry that follows.
1. O=C(/C=C/c1ccc(O)cc1)CC(=O)/C=C/c1cc(O)cc(O)c1 [CU092]
2. COc1ccc(O)c(/C=C/C(=O)CC(=O)/C=C/c2ccc(O)cc2)c1 [CU253]
3. COc1cc(/C=C/C(=O)CC(=O)/C=C/c2cc3ccccc3n2C)ccc1O [CU147]
4. O=C(/C=C/c1ccc(O)cc1)CC(=O)/C=C/c1cc2ccccc2o1 [CU321]
5. CCN(CC)c1ccc(/C=C/C(=O)CC(=O)/C=C/c2ccc(N(CC)CC)cc2OCC=C(C)C)c(OCC=C(C)C)c1 [CU431]

["238 to 241 °C", "167 to 170 °C", "167 to 170 °C", "173 to 178 °C", "107 to 113 °C"]

----------
propertyLabel: melting point

Below: 5 compounds and their reported melting point.
Cn1cc(/C=C/C(=O)CC(=O)/C=C/c2ccc(O)cc2)c2ccccc21 = 185 to 190 °C
COc1cc(/C=C/C(=O)C(=Cc2ccncc2)C(C)=O)ccc1O = 92 to 95 °C
CCN(CC)c1ccc(/C=C/C(=O)CC(=O)/C=C/c2ccc(OC)c(O)c2)c(OC(C)C)c1 = 117 to 120 °C
O=C(/C=C/c1ccc(O)cc1)CC(=O)/C=C/c1cc(O)ccc1[N+](=O)[O-] = 187 to 194 °C
Nc1ccc(/C=C/C(=O)CC(=O)/C=C/c2ccc(O)cc2)cc1 = 212 to 217 °C

API: the following record is the query input.
Lab note: `COc1ccc(/C=C/C(=O)CC(=O)/C=C/c2ccc(O)c([N+](=O)[O-])c2)cc1O` gave melting point of 220 to 224 °C

----------
propertyLabel: melting point

Below: 5 compounds and their reported melting point.
COc1cc(/C=C/C(=O)CC(=O)/C=C/c2ccc(OC)c(O)c2)cc(OC)c1 = 187 to 193 °C
O=C(/C=C/c1ccc(O)cc1)CC(=O)/C=C/c1ccc(O)c(F)c1 = 190 to 192 °C
CN(C)c1ccc(/C=C/C(=O)CC(=O)/C=C/c2ccc(O)cc2)cc1 = 205 to 209 °C
O=C(/C=C/c1ccc(O)cc1)CC(=O)/C=C/c1cc(C(F)(F)F)ccc1F = 168 to 174 °C
COc1c(O)cccc1/C=C/C(=O)CC(=O)/C=C/c1cccc(O)c1OC = 62 to 65 °C

Please report melting point for every entry that follows.
1. O=C(/C=C/c1ccc(O)cc1)CC(=O)/C=C/c1cccnc1N1CCOCC1
2. O=C(/C=C/c1ccc(O)cc1Cl)CC(=O)/C=C/c1ccc(O)cc1Cl
3. COc1cc(/C=C/C(=O)CC(=O)/C=C/c2cccc(OC)c2O)ccc1O
4. COc1ccc(/C=C/C(=O)CC(=O)/C=C/c2cccc(OC)c2OC)cc1O
5. COc1cc(/C=C/C(=O)CC(=O)/C=C/c2cccs2)ccc1O

1. 159 to 165 °C
2. 248 to 254 °C
3. 156 to 158 °C
4. 144 to 148 °C
5. 52 to 54 °C

Please report melting point for every entry that follows.
1. COc1cccc(OC)c1/C=C/C(=O)CC(=O)/C=C/c1ccc(O)cc1
2. CCn1c2ccccc2c2cc(CCC(=O)CC(=O)CCc3ccc(OC)c(O)c3)ccc21
3. O=C(/C=C/c1ccc(O)cc1)CC(=O)/C=C/c1ncc[nH]1
4. CCN(CC)c1ccc(/C=C/C(=O)CC(=O)/C=C/c2ccc(N(CC)CC)cc2OC(=O)c2ccccc2)c(OC(=O)c2ccccc2)c1

165 to 170 °C
97 to 100 °C
175 to 181 °C
192 to 196 °C

Lab note: `COc1cc(/C=C/C(=O)CC(=O)/C=C/c2ccc(O)cc2O)ccc1O` gave melting point of 99 to 108 °C
